Hello, the source for this data is the supplement of paper PMC3545927, in case you need it.

target: furin, P09958; assay: furin cleavage Z-score vs untreated control; higher = more cleavage, active = 3.5 or more, inactive = 1 or less, 8 variable residues between constant flanks; conditions: 7.5 min;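 further: purified furin at 1:10 enzyme:substrate in 50 mM HEPES pH 7.5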
Sequence (P09958 whole entry): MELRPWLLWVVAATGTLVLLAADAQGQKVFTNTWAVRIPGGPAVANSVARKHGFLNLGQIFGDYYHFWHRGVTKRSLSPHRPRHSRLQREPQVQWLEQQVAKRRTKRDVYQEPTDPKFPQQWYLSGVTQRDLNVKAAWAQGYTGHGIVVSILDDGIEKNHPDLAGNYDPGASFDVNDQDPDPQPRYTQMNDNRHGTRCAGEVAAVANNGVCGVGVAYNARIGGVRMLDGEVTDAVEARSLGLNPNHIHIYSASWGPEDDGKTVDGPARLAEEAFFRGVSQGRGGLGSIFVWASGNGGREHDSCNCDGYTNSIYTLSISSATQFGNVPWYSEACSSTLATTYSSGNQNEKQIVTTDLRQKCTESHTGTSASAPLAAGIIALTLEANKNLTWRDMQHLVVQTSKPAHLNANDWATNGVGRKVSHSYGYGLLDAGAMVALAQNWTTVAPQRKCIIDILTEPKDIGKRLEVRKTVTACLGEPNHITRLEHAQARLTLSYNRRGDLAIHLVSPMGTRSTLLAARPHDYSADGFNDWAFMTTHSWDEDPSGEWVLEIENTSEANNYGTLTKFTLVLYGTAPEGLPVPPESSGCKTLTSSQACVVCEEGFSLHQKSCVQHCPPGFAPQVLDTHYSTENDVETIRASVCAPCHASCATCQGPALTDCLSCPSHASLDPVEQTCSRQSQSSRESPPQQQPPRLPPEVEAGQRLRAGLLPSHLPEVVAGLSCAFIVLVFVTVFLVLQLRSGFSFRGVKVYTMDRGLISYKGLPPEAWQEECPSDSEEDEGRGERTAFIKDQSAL
The list shows a part of the results. The hit rate among all sequences tested is not known here.
Provide the recorded furin cleavage Z-score for the entries that follow.
Answers are plain numbers.

Reference set, count: 5
primary-sequence	furin cleavage Z-score
CASRPCSAHLAGNASASA [HC2493]	0.596
CARPKRADTFAGNASASA [FS-2054]	5.65
CARGRRQPIPAGNASASA [HC190]	0.155
CARGRRGMKDAGNASASA [FS-2394]	0.884
CALSVEEACSAGNASASA [HC1412]	-1.32

Moving on to another sequence below.
Data request: Fill blank: measured furin cleavage Z-score of the sequence CAEVPCHNPSAGNASASA [HC2381] is ____.
Data returned: -0.125
